# System: T1, human B7-H3 (hB7-H3) (human, UniProt Q5ZPR3 29-461, limits assumed)
# T1 construct: The construct is not described
# T1 sequence (looked up): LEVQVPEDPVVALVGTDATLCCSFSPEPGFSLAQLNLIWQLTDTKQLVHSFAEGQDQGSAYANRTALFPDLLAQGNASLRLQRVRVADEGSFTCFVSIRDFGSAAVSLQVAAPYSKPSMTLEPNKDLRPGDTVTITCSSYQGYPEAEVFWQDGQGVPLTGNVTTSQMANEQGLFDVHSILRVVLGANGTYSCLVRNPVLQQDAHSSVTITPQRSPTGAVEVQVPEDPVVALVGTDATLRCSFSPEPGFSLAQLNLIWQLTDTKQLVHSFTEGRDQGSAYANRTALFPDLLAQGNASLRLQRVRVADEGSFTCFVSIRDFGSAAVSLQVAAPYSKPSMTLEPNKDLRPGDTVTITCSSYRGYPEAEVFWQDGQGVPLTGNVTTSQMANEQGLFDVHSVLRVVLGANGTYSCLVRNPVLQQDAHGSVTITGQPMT
# Assay Info: SPR; reduced (no disulfide bridge)
Value Type: Kd (nM)
Give bare numbers, in nM.

Query: For the binder WALQLCHSMFYTCKSG (no disulfide bridge (reduced cysteines C6 and C13); lactam bridge Q4-K14 and N-terminal acetylation as in B1.1, also called reduced form of B1.1) [reduced B1.1 (no disulfide bridge)] , what Kd is on record?
Result: 198

Source: patent US20260191974A1
